assay.system: hCRTH2 receptor (Homo sapiens)
Construct: expressed in transfected cells
assay.summary: CRTH2 membranes radioligand binding assay ({3H}-PGD2), Example B-1
reported.conditions: {3H}-PGD2 radioligand binding, read-out: CRTH2 binding IC50 (nM) (method B1 above)
reported.property: IC50 (nM)
Form entry: value (nM) — number only.

Some solved cases for reference:
{"columns": ["chemical.string", "IC50 / nM"],
 "data": [
  ["Cc1ccc2c(/C=C(\\C#N)C(=O)N3Cc4ccccc4Cc4ccccc43)cn(CC(=O)O)c2c1", 49],
  ["N#C/C(=C\\c1cn(CC(=O)O)c2ccccc12)C(=O)Nc1ccccc1Cc1ccccc1", 42],
  ["Cc1ccc(NC(=O)/C(C#N)=C/c2cn(CC(=O)O)c3ccccc23)cc1Br", 76],
  ["N#C/C(=C\\c1cn(CC(=O)O)c2ccccc12)C(=O)N(Cc1ccccc1)c1ccccc1", 29],
  ["N#C/C(=C\\c1cn(CC(=O)O)c2ccccc12)C(=O)N1Cc2ccccc2Cc2ccccc21", 6]
]}

Query: Param readout = IC50; param system = hCRTH2 receptor (Homo sapiens); param query = N#C/C(=C\c1cn(CC(=O)O)c2ccccc12)C(=O)Nc1ccccc1Oc1ccc(Cl)cc1Cl ; response: value
Reply: 35

Query: Request body: readout IC50, system hCRTH2 receptor (Homo sapiens), query N#C/C(=C\c1cn(CC(=O)O)c2ccccc12)C(=O)N1CCCc2ccccc21 . Return the value.
Reply: 9

Query: Query IC50 on hCRTH2 receptor (Homo sapiens) for COc1ccc(Cl)cc1NC(=O)/C(C#N)=C/c1cn(CC(=O)O)c2ccccc12
Reply: 40

Query: # value lookup — system hCRTH2 receptor (Homo sapiens), readout IC50, item N#C/C(=C\c1cn(CC(=O)O)c2ccccc12)C(=O)N1c2ccccc2C=Cc2ccccc21
Reply: 12

Query: Look up IC50 with hCRTH2 receptor (Homo sapiens) for this molecule: N#C/C(=C\c1cn(CC(=O)O)c2ccccc12)C(=O)Nc1cccc(C(=O)c2ccccc2)c1
Reply: 18

Query: Give IC50 (hCRTH2 receptor (Homo sapiens)) of the following molecule: COc1ccc(N(C)C(=O)/C(C#N)=C/c2cn(CC(=O)O)c3ccccc23)cc1
Reply: 7

Query: Request body: readout IC50, system hCRTH2 receptor (Homo sapiens), query N#C/C(=C\c1cn(CC(=O)O)c2ccccc12)C(=O)N1c2ccccc2Sc2ccc(Cl)cc21 . Return the value.
Reply: 9

* * *

assay.system: hCRTH2 receptor (Homo sapiens, UniProt Q9Y5Y4)
Construct: expressed in transfected cells
Sequence (Q9Y5Y4 whole entry): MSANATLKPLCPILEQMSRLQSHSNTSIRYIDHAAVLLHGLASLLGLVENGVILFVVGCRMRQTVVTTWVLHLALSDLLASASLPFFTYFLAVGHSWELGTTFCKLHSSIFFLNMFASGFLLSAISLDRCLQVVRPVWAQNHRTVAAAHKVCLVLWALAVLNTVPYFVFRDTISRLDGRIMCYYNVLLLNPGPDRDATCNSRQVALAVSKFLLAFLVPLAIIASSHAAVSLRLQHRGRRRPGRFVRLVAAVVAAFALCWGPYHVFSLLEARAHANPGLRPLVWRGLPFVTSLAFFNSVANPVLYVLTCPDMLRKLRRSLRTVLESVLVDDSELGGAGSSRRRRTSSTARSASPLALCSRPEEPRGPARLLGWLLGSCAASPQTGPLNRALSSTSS
assay.summary: Intracellular calcium mobilization assay (FLIPR), Example B-2
Format: cell-based
reported.conditions: HEK-293 cells expressing hCRTH2; 10 nM prostaglandin D2 as agonist; read-out: CRTH2 FLIPR IC50 (nM) (method B2 above)
Doc: threshold 90 nM (exclusive). Items with IC50 beneath it return Yes; others return No.

{"columns": ["chemical.string", "class"],
 "data": [
  ["N#C/C(=C\\c1cn(CC(=O)O)c2ccccc12)C(=O)N1c2ccccc2C=Cc2ccccc21", "Yes"],
  ["COc1ccc(Cl)cc1NC(=O)/C(C#N)=C/c1cn(CC(=O)O)c2ccccc12", "Yes"],
  ["CN(C(=O)/C(C#N)=C/c1cn(CC(=O)O)c2ccc(F)cc12)c1ccccc1C(F)(F)F", "Yes"],
  ["CC(=O)c1ccc(N(C)C(=O)/C(C#N)=C/c2cn(CC(=O)O)c3ccccc23)cc1", "No"],
  ["N#C/C(=C\\c1cn(CC(=O)O)c2ccccc12)C(=O)N(CC(=O)O)c1ccccc1", "No"],
  ["N#C/C(=C\\c1cn(CC(=O)O)c2ccccc12)C(=O)Nc1ccccc1Oc1ccc(Cl)cc1Cl", "No"],
  ["Cc1ccc(NC(=O)/C(C#N)=C/c2cn(CC(=O)O)c3ccccc23)cc1Br", "Yes"],
  ["N#C/C(=C\\c1cn(CC(=O)O)c2ccccc12)C(=O)Nc1ccccc1Cc1ccccc1", "No"]
]}

Turning now to a further compound:
Query: Please let me know if N#C/C(=C\c1cn(CC(=O)O)c2ccccc12)C(=O)N1CCCc2ccccc21 shows IC50 below 90 nM.
Reply: Yes
